Taken from the supplement of paper PMC12764529.

Below, each entry is listed alongside its reported folding stability dG unfold.
# EXPERIMENT SUMMARY: folding stability dG unfold from trypsin proteolysis; higher = more stable
Only the number, expressed in kcal/mol, is required.

Solved entries:
MYVVRAKFKIKGEDGSEFEAETVILVEETPEEAKEKVEEKAREIAEELGLSLENITEIEVEVLSLDEELLPS [r1_159_TrMRF] : 1.44
SAGGMKIKLKNGKVIEIKKKPGYIEIKIIDKKTKKVYTYTFKSKDGKISLEDLAKKLAELPNIKEIIPSAGG [r13_579_TrROS_Hall] : 3.3

Query: Could you share which folding stability dG unfold value was measured for SAGGSAGGSAGGSKDERTLTLRLRVTTPIYGTDADGNPLEPIEVTKEYELTVTVPADLLSAGGSAGGSAGGS [r4_425_TrMRF] ?
Reply: 1.18

Query: Could you share which folding stability dG unfold value was measured for SAMIEVINATDPVTGKPYTITREGEGITVTDPETGKTYAATKDGDTITLDAGDTPLTLTPVSTVPESLLSAG [r14_208_JUSTAS] ?
Reply: 0.839

Query: Could you share which folding stability dG unfold value was measured for SAGGEKIEELLKELLEKLEIKPGEKVEIEIEFELEDGYRIKLKITVTYNEETGEVEIKVEIVEIEKVSAGGS [r16_634_TrROS_Hall] ?
Reply: 2.96

Query: Could you share which folding stability dG unfold value was measured for SAGGSAGGSAGGMEKLSETVTETVEVTLTSGDKTYTFTVTTTTVVLPDGTVETLEVTLQPSAGGSAGGSAGG [r11_95_JUSTAS] ?
Reply: 2.05

Query: Could you share which folding stability dG unfold value was measured for SAGGSAGGSAGGPMSNVVEEVVSVEVTNPGLPDSRFVTNPEPGVPLPVPRTVPVVIVLRASAGGSAGGSAGG [r11_257_JUSTAS] ?
Reply: -0.602

Query: Could you share which folding stability dG unfold value was measured for SAGGSAGGSAGDVPPSETVTITVSSEAEKEAIKKEHPEVNLTFTEAEPPVAFDPTSDVTASAGGSAGGSAGG [r17_126_JUSTAS] ?
Reply: 0.842

Query: Could you share which folding stability dG unfold value was measured for SAGGSAIKVSTSPSDVSVSKVPLPNGETLTIEVSSNGETTVTKTSPTPGTPTTTTVPGASVEELLESAGGSA [r15_406_JUSTAS] ?
Reply: 0.331

Query: Could you share which folding stability dG unfold value was measured for SAMMKAEIVEIKFDPKTKKLTIKFPDGSKLEIKPGETIKIKIKVTVFNEETGKLEEKEITLTLKLPEGLSAG [r14_366_TrROS_Hall] ?
Reply: 2.31

Query: Could you share which folding stability dG unfold value was measured for SAGGSAGGSAGGKTLRIKVEETEYVVLFPNTGRLLVIPPGYEAEIELDDAPDVLILGRPPSAGGSAGGSAGG [r11_939_TrMRF] ?
Reply: 0.123

###

# EXPERIMENT SUMMARY: folding stability dG unfold (combined trypsin and chymotrypsin); higher = more stable
ATTRIBUTE MEASURED: folding stability dG unfold (kcal/mol)
Only the number, expressed in kcal/mol, is required.

SAGGSPTIKLEILLPKEMTPEEVEALARELEEAGYEIVSIKVETVKDEDGREWVRVTITLRPKEDLSAGGSA [r2_442_TrROS_Hall] : 3.73
SAGVEELFRRLGAEVSVTRRPDGSLVVTFRLPDGRTIVVFVTPDGVRVVVVDPSGERRTLSLEDLKRLASAG [r14_578_TrMRF] : 3.83
SAGGSAGGSAGGSIPPSDVTTEVDPNTPLTTVTYPSGVVVTETFPPDGTSTTTVDTAAGSAGGSAGGSAGGS [r10_170_JUSTAS] : 1.56

Query: Could you share which folding stability dG unfold value was measured for SAGGPKPKTYDIMIPFDSEEEAEKLMENPEWAKEIAKEIAPLFPGYDIKVEVSWHPETGYFMVKITVSAGGS [r16_320_TrROS] ?
Reply: 4.01
